Origin of the recorded values: patent US20170145086A1

Molecular target: T1, HA-GCN4 hAPRIL (amino acid residues 105-250) (human, UniProt O75888 105-250)
T1 construct: Bought (R&D Systems); also called HA-tagged GCN4 human APRIL; HA-GCN4-huAPRIL; not shown: N-terminal HA tag; GCN4 isoleucine zipper oligomerization domain
T1 sequence: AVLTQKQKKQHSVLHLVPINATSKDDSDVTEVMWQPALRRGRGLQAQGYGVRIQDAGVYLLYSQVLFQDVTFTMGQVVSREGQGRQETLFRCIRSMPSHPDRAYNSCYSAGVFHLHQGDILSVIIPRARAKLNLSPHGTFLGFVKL
Experiment: blocking ELISA; blocked: human APRIL binding to BCMA-Fc
Endpoint Label: pIC50
Friendly reminder that pIC50 comes from taking -log10 of the concentration in mol/L.

Task: # pIC50 lookup, item 2419-1310 (antibody, V domains shown) VH: QVQLVQSGAEVKKPGASVKVSCKASGYTFTDYTIHWVRQATGQGLEWMGWIYPLRGSINYAQKFQGRVTMTANKSISTVYMELSSLRSEDTAVYFCARHGAYYSNAFDYWGQGTLVTVSS VL: DIVMTQSPDSLAVSLGERATINCKSSQSVDNDGIRFLHWYQQKPGQPPKLLIYRASTRESGVPDRFSGSGSGTDFTLTISSLQAEDVAVYYCQQSNKDPYTFGGGTKVEIK
Result: 9.57

Task: Would you mind doing 4540-033 (antibody, V domains shown) VH: QVQLVQSGAEVKKPGASVKVSCKASGYTFADYYINWVRQAPGQGLEWMGWIFPGSGSTYYAQKLQGRVTMTTDTSTSTAYMELRSLRSDDTAVYYCARGDSGRAMDYWGQGTLVTVSS VL: DIQMTQSPSSLSASVGDRVTITCQASQDINKYLAWYQHKPGKAPKLLIHYTSTLETGVPSRFSGSGSGTDFTFTISSLQPEDIATYYCLQYDNLLTFGGGTKVEIK as well?
Result: 8.43

Task: Would you mind doing monoclonal antibody 4035-062 (antibody, IgG1, V domains shown) VH: QVQLQESGPGLVKPSETLSLTCTVSGFSLTIYDVHWVRQPPGKGLEWIGVIWSDGSTDYNPSLKSRVTISKDTSKNQVSLKLSSVTAADTAVYYCARNWVDQAWFAYWGQGTLVTVSS VL: DIQMTQSPSSLSASVGDRVTITCRASKNIYSYLAWYQQKPGKAPKLLVYNAKTLPEGVPSRFSGSGSGTDFTLTISSLQPEDFATYYCQHHYGTPLTFGQGTKLEIK as well?
Result: 10.00

Task: Would you mind doing 2419-1306 (antibody, V domains shown) VH: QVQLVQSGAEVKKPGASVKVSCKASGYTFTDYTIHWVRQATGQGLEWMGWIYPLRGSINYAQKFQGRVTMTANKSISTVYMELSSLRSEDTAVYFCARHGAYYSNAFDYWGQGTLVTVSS VL: EIVMTQSPATLSVSPGERATLSCRASESVDNDGIRFLHWYQQKPGQAPRLLIYRASTRATGIPARFSGSGSRTEFTLTISSLQSEDFAVYYCQQSNKDPYTFGGGTKVEIK as well?
Result: 9.77

Task: Would you mind doing 2419-0806 (antibody, V domains shown) VH: EVQLVQSGAEVKKPGESLKISCKASGYTFTDYTIHWVRQMPGKGLEWMGWIYPLRGSINYSPSFQGQVTISADKSISTVYLQWSSLKASDTAMYFCARHGAYYSNAFDYWGQGTLVTVSS VL: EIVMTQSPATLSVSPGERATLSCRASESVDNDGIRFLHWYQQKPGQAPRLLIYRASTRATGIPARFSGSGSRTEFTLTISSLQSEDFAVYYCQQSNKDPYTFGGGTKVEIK as well?
Result: 9.68
